Attribution: PubChem BioAssay

# ASSAY NAME: HepG2 cell viability effects, profiling panel, calcein-AM fluorescence, 48 h, basal (AID 1164); further: test concentration not given here
# MEASUREMENT CONDITIONS: higher = more signal
# reported z-score; entries follow
// return just the number, without any unit appended

Sample records with z-score:
[[record]]
compound = "CC(C)CNC(=O)[C@@]1(c2ccc([N+](=O)[O-])cc2)CC(=O)N(CC23CC4CC(CC(C4)C2)C3)[C@@H]1c1ccc(CO)cc1I"
endpoint_name = "z-score"
measurement = -3.4

[[record]]
compound = "COc1ccc(NN2C(C(O)c3ccc(OC)c(OCc4ccccc4)c3)C=CC3C(=O)N(C4CCCCC4)C(=O)C32)cc1 (centres undefined)"
endpoint_name = "z-score"
measurement = 0.337

[[record]]
compound = "C=CC(=C)C1=CCO[C@@H]1[C@H]1CCCN1S(=O)(=O)c1ccccc1[N+](=O)[O-]"
endpoint_name = "z-score"
measurement = 0.324


We next turn to a different compound, shown below.
What measured z-score goes with CC(C)(C)N1CC=CC23O[C@@H]4/C=C\CCCOC(=O)C4[C@H]2C(=O)N(CCO)[C@@H]3C1=O (some centres undefined) ?
-0.664

* * *

# ASSAY NAME: small-molecule microarray binders of probe aDKK1, primary screen, biochemical, biotinylated probe, 635/667 nm fluorescence (AID 1099);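 further: score merges 667nm spot fluorescence with signal to noise across triplicate slides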
# MEASUREMENT CONDITIONS: higher = more signal
ENDPOINT NAME: composite z-score

[[record]]
item_smiles = "NC(=O)NCC#Cc1ccc2c(c1)[C@]1(C(=O)N2)[C@H](C(=O)NC[C@H](O)c2ccccc2)[C@H]2C(=O)O[C@H](c3ccccc3)[C@H](c3ccccc3)N2[C@@H]1c1ccc(O)cc1"
measurement = 0.0166


What measured composite z-score goes with CC1=C2[C@@H](CCc3ccccc3)OB(O)C[C@@H]2n2c(=O)n(-c3ccccc3)c(=O)n2C1 ?
-0.0992

What measured composite z-score goes with COCCOC(=O)N1C(=O)[C@@]2(c3cc(C#CC4=CCCCC4)ccc31)[C@H](C(=O)NC[C@H](O)c1ccccc1)[C@H]1C(=O)O[C@H](c3ccccc3)[C@H](c3ccccc3)N1[C@@H]2c1ccc(O)cc1 ?
0.298

What measured composite z-score goes with CC(C)NC(=O)[C@@H]1c2ccccc2C(=O)N(Cc2ccccc2Cl)[C@H]1c1ccc(CO)cc1 ?
0.0098

What measured composite z-score goes with COCCOC(=O)N1C(=O)[C@@]2(c3ccccc31)[C@H](C(=O)Nc1nc3ccccc3s1)[C@H]1C(=O)O[C@H](c3ccccc3)[C@H](c3ccccc3)N1[C@@H]2c1ccc(OCCO)cc1 ?
0.186

What measured composite z-score goes with COCCOC(=O)N1C(=O)[C@@]2(c3cc(C#CCC(C(=O)OC)C(=O)OC)ccc31)[C@H](c1ccccc1OCCO)N1[C@H](c3ccccc3)[C@H](c3ccccc3)OC(=O)[C@H]1[C@@H]2C(N)=O ?
0.152

* * *

# ASSAY TARGET: Torsin-1A (Homo sapiens) (UniProt O14656)
# Sequence (O14656 whole entry, looked up): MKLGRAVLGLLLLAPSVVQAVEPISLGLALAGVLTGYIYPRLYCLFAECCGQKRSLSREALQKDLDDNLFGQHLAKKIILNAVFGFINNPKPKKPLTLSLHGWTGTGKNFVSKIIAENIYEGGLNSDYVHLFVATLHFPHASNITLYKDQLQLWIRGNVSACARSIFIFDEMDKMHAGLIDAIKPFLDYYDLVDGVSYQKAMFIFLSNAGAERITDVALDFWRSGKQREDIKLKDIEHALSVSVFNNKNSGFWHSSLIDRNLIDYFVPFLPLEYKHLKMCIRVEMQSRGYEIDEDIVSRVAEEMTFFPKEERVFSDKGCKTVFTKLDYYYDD
# ASSAY NAME: torsin A binders from cell lysate, primary screen, small-molecule microarray, wild-type, 635/667 nm (AID 1149)
# MEASUREMENT CONDITIONS: COS7 hTOR1A-WT lysate, 635 nm fluorescence, higher = more signal
Lab note: compare composite z-score against 0.2. Equal or greater, write MET. Smaller, write NOT MET.

[[record]]
compound = "CC(C)N1CC=CC23O[C@@H]4C=CCOC(=O)[C@@H]4[C@H]2C(=O)N(CCO)[C@@H]3C1=O (stereo partly drawn)"
label = "NOT MET"

[[record]]
compound = "C=CCOC(=O)[C@@H]1[C@H]2C(=O)O[C@H](c3ccccc3)[C@H](c3ccccc3)N2[C@H](c2ccc(OCCOC(=O)[C@@H]3C[C@@H]4C(=O)N[C@@H](Cc5ccccc5)C(=O)N4[C@@H]3c3cccc(OCCO)c3)cc2)[C@@]12C(=O)Nc1ccc(I)cc12"
label = "MET"

[[record]]
compound = "O=C1O[C@@H](c2ccccc2)[C@@H](c2ccccc2)N2[C@@H](c3ccc(OCCO)cc3)[C@]3(C(=O)Nc4ccccc43)[C@@H](C(=O)Nc3nc4ccccc4s3)[C@H]12"
label = "MET"

[[record]]
compound = "CCOC(=O)C1=CC[C@@H](c2ccccc2)N(S(=O)(=O)c2ccc(C)cc2)[C@H]1C(=O)OCC"
label = "MET"

[[record]]
compound = "Cc1ccc(S[C@]2(C(=O)NCc3ccccc3)CC(=O)N(Cc3ccccc3)[C@@H]2c2ccc(CO)cc2)cc1"
label = "NOT MET"


// inclusive: composite z-score at least 0.2? input: C=C[C@H](COC(C)=O)N(Cc1ccc(OC(C)=O)c(OC)c1)S(=O)(=O)c1ccc(Br)cc1
MET

// inclusive: composite z-score at least 0.2? input: CCC[C@@H]1C=C(C(=O)O)[C@H](c2ccc(C)cc2)N1S(=O)(=O)c1ccc(C)cc1
MET

// inclusive: composite z-score at least 0.2? input: C=CC[C@@]1(C(=O)NCC(O)CO)N=C(c2ccc(OCCCO)cc2)O[C@@H]1c1ccccc1N=[N+]=[N-] (stereo partly drawn)
MET

// inclusive: composite z-score at least 0.2? input: Cc1ccc(S[C@]2(C(=O)NC3CC3)CC(=O)N(Cc3ccccc3)[C@@H]2c2ccc(CO)cc2)cc1
NOT MET

// inclusive: composite z-score at least 0.2? input: CCCN1C(=O)[C@@]2(CCC(=O)OC(C)(C)C)N=C(c3ccc(OCCCO)cc3)O[C@H]2c2ccccc21
NOT MET

// inclusive: composite z-score at least 0.2? input: C=C(COC)C(=O)CC[C@@H](OC(=O)c1cccnc1)c1ccc(CO)o1
MET

// inclusive: composite z-score at least 0.2? input: COC(=O)c1ccc(C23CC2(C(NP(=O)(c2ccccc2)c2ccccc2)c2ccccc2)C3)cc1 (stereo not drawn)
MET

* * *

# ASSAY TARGET: Calmodulin-1 (Homo sapiens)
# ASSAY NAME: calcium-bound CALM1 binders on microarrays, profiling panel, artefact control for SMM control-protein annotation, biochemical, small-molecule microarray, Cy5-labelled CALM1, plus calcium (AID 1112);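 further: score merges spot fluorescence with signal to noise from triplicate slides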
# MEASUREMENT CONDITIONS: Cy5-CALM1 binding fluorescence, higher = more signal
ENDPOINT NAME: composite z-score
// return just the number, without any unit appended

[[record]]
molecule = "O=C1O[C@H](c2ccccc2)[C@H](c2ccccc2)N2[C@H]1[C@@H](C(=O)Nc1nc3ccccc3s1)[C@]1(C(=O)Nc3ccccc31)[C@H]2c1ccc(O)cc1"
assay_target = "Calmodulin-1 (Homo sapiens)"
measurement = -0.322


What measured composite z-score goes with O=C/C=C/c1ccc2c(c1)OCO2 ?
-0.755

What measured composite z-score goes with [N-]=[N+]=NCc1ccccc1[C@@H]1OC(c2ccc(OCCCO)cc2)=N[C@]1(Cc1ccccc1)C(=O)N1CCCCC1 ?
0.955

* * *

# reported composite z-score; entries follow
# ASSAY TARGET: Neurogenic locus notch homolog protein 2 (Homo sapiens) (UniProt Q04721)
# Sequence (Q04721 whole entry, looked up): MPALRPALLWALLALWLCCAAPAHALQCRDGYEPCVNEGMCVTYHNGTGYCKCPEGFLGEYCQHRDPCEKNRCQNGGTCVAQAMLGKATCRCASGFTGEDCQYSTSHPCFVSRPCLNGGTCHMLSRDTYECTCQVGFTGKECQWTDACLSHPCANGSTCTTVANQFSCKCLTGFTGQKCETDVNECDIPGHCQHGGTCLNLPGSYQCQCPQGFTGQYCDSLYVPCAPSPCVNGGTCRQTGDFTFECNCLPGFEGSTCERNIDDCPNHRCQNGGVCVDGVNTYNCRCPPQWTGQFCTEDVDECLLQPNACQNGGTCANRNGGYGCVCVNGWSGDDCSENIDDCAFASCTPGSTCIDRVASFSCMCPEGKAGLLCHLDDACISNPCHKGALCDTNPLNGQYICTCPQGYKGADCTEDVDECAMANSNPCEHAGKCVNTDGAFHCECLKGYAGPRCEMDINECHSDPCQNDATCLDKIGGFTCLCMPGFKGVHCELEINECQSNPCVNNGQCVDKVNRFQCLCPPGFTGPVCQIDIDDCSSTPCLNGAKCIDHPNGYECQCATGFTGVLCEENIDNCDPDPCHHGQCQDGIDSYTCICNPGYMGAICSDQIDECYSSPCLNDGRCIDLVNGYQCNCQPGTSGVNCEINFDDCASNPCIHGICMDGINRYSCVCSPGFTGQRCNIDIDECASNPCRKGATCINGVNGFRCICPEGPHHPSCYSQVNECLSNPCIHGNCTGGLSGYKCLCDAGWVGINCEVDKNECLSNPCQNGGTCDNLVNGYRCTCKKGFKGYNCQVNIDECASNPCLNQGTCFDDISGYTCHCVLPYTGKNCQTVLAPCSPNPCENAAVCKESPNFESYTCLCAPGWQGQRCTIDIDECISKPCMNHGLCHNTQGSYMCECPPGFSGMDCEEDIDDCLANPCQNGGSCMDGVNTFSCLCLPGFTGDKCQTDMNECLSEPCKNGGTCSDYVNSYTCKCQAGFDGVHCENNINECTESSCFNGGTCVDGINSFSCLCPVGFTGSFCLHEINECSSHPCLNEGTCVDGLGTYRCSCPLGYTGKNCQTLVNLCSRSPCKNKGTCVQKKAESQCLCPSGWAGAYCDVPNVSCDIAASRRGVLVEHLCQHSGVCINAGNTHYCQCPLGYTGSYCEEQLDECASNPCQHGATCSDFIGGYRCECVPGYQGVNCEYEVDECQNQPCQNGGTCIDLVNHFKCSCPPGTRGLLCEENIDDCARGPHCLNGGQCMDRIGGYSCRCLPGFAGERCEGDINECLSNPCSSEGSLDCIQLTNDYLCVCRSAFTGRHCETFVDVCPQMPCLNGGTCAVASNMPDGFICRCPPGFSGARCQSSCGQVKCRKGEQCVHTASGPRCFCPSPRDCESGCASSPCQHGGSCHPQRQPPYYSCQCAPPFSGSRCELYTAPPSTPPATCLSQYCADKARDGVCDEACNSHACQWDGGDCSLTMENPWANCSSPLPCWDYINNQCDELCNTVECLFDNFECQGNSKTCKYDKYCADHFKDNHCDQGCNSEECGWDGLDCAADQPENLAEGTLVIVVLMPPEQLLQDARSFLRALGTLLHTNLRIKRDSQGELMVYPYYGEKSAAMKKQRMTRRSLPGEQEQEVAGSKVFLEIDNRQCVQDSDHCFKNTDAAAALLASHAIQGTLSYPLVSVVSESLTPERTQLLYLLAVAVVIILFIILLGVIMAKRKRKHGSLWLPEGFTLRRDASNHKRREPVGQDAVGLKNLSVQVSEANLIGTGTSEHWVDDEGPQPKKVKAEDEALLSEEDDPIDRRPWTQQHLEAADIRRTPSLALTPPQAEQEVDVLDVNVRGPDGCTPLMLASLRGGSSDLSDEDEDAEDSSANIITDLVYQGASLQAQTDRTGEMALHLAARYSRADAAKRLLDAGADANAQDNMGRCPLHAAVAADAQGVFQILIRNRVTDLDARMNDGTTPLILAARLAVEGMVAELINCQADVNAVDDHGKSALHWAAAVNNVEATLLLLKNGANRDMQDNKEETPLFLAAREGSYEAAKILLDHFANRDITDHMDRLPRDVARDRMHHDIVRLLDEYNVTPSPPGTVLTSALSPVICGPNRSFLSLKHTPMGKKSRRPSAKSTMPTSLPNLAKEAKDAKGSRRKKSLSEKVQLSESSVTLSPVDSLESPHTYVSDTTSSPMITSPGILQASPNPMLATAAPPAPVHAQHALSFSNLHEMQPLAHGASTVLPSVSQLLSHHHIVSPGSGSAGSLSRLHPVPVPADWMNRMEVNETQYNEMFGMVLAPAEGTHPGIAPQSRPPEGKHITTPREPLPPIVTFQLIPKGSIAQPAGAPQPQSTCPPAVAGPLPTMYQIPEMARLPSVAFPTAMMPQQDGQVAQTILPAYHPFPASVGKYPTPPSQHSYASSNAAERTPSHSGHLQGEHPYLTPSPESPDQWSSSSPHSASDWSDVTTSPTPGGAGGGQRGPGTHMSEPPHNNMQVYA
# ASSAY NAME: Notch2 binders on small-molecule microarrays, primary screen, biochemical, small-molecule microarray, 635 nm fluorescence, stem cell growth factors (AID 1073)
# MEASUREMENT CONDITIONS: Notch2 binding, higher = more signal
// return just the number, without any unit appended

Sample records with composite z-score:
[[record]]
item_smiles = "O=C/C=C/c1ccc2c(c1)OCO2"
measurement = -0.24

[[record]]
item_smiles = "COC(=O)[C@@]1(Cc2ccc(OC)cc2)[C@H]2c3cc(C(=O)N4CCCC4)n(Cc4cc(F)cc5c4OCOC5)c3C[C@H]2CN1C(=O)c1ccccc1"
measurement = 1.74

[[record]]
item_smiles = "O=C(O)[C@@]1(Cc2ccccc2)N=C(c2ccc(OCCCO)cc2)O[C@H]1c1ccccc1"
measurement = -0.738


We next turn to a different compound, shown below.
What measured composite z-score goes with CCOC(=O)C[C@H]1[C@H](OC(=O)c2ccc(-c3ccccc3)cc2)[C@@H](NC(=O)c2ccc3ccccc3c2)c2cc(OCCCO)ccc2N1C(=O)Cc1ccc(OC)cc1 ?
0.425

* * *

# ASSAY NAME: small-molecule microarray binders of probe aEGFR, primary screen, biochemical, biotinylated probe, 635/667 nm fluorescence (AID 1097);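 further: probe is a biotinylated anti-EGFR antibody binding compounds printed on slides; score combines fluorescence near 667 nm and signal to noise of each spot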
# MEASUREMENT CONDITIONS: higher = more signal
ENDPOINT NAME: composite z-score
// return just the number, without any unit appended

[[record]]
compound = "CC(C)NC(=O)[C@@]1(Cc2ccccc2I)c2ccccc2C(=O)N(Cc2ccccc2)[C@H]1c1ccc(CO)cc1"
measurement = -0.0605


What measured composite z-score goes with CC(=O)NCCCC[C@@H]1NC(=O)[C@@H]2C[C@H](C(=O)NCCCCCCNC(=O)CS)[C@H](c3ccc(O)cc3)N2C1=O ?
-0.142

What measured composite z-score goes with COC(=O)[C@@]1(Cc2ccccc2)[C@H]2c3cc(C(=O)N(C)C)n(Cc4c(-c5ccccc5)noc4C)c3C[C@H]2CN1C(=O)c1ccccc1 ?
0.235

What measured composite z-score goes with O=C1C[C@]2(c3ccc([N+](=O)[O-])cc3)C(=O)N(CC(F)(F)F)c3cc(CO)ccc3[C@H]2N1CC12CC3CC(CC(C3)C1)C2 ?
-0.0972

What measured composite z-score goes with CC(C)C[C@@H]1NC(=O)[C@H]2C[C@@H](C(=O)NCCCCCNC(=O)CS)[C@@H](c3cccc(OCCO)c3)N2C1=O ?
0.111

What measured composite z-score goes with C=C[C@H](COC(C)=O)N(Cc1ccc(OC(C)=O)c(OC)c1)S(=O)(=O)c1ccc(Br)cc1 ?
0.312

What measured composite z-score goes with CCCCC(O)C1C=CC2C(=O)N(C3CCCCC3)C(=O)C2N1Nc1ccc(OC)cc1 (configuration not stated) ?
-0.0661
